- target: SCRIB_2, Q14160
- Sequence (Q14160 857-960): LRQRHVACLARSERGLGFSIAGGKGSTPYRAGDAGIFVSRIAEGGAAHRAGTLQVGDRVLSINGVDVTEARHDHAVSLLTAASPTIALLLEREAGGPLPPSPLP
- experiment summary: holdup assay
- Set-up: key: below the threshold = too weak to quantify, mostly under pKd 3.1 to 4
- assay context: plain residues with an end cap or a label only (N-terminal biotin on a linker: ado-ado)
test readout: pKd

1. GTMFLRETSL [GUCY1A2, P33402] :: 5.15
2. RGKNRRQSIF [CDK18, Q07002] :: below the threshold
3. IQISELETNV [SLC1A7, O00341] :: 4.16
4. PLPPEEESWV [GAS2L2, Q8NHY3] :: 4.94
5. EFKQTSSFLV [JAM1, Q9Y624] :: below the threshold
6. PKSNSSKEYV [CLDN7, O95471] :: below the threshold
7. IKLETKKTKL [SLC15A2, Q16348] :: below the threshold
8. SAGADSETHC [SLCO1B1, Q9Y6L6] :: below the threshold
9. WAKEKQHTRL [SLC17A1, Q14916] :: below the threshold
